This section presents compounds with their documented relative viability values.
System: NCI-H520
Assay: relative viability (nuclei count vs DMSO), 5 days (fraction); higher = more cells survive
Conditions: first compound 158.11 µM
Assay Endpoint: relative viability

Compound	Measured
O=C(O)CCCCC(CCSCc1ccccc1)SCc1ccccc1 (stereo not given) [CPI-613] + Nc1nc2[nH]cc(CCc3ccc(C(=O)N[C@@H](CCC(=O)O)C(=O)O)cc3)c2c(=O)[nH]1 [Pemetrexed] (partner 0.2 µM)	0.232
O=C(O)CCCCC(CCSCc1ccccc1)SCc1ccccc1 (stereo not given) [CPI-613] + CS(=O)(=O)N1CCN(Cc2cc3nc(-c4cccc5[nH]ncc45)nc(N4CCOCC4)c3s2)CC1 [Pictilisib] (partner 1 µM)	0.172
O=C(O)CCCCC(CCSCc1ccccc1)SCc1ccccc1 (stereo not given) [CPI-613] + CC(=O)c1c(C)c2cnc(Nc3ccc(N4CCNCC4)cn3)nc2n(C2CCCC2)c1=O [Palbociclib] (partner 0.5 µM)	0.119
O=C(O)CCCCC(CCSCc1ccccc1)SCc1ccccc1 (stereo not given) [CPI-613] + CCNC(=O)c1noc(-c2cc(C(C)C)c(O)cc2O)c1-c1ccc(CN2CCOCC2)cc1 [Luminespib] (partner 0.01 µM)	0.197
O=C(O)CCCCC(CCSCc1ccccc1)SCc1ccccc1 (stereo not given) [CPI-613] + C[C@@H](Oc1cc(-c2cnn(C3CCNCC3)c2)cnc1N)c1c(Cl)ccc(F)c1Cl [Crizotinib] (partner 1 µM)	0.233

====

Tested on: NCI-H3122
Assay: relative viability (nuclei count vs DMSO), 5 days (fraction); higher = more cells survive
Conditions: first compound 158.11 µM

Compound	relative viability
O=C(O)CCCCC(CCSCc1ccccc1)SCc1ccccc1 (centres undefined) [CPI-613] + N=C(N)NC(=N)NCCc1ccccc1 [Phenformin] (partner 250 µM)	0.17
O=C(O)CCCCC(CCSCc1ccccc1)SCc1ccccc1 (centres undefined) [CPI-613] + CC(C)C[C@H](NC(=O)[C@H](Cc1ccccc1)NC(=O)c1cnccn1)B(O)O [Bortezomib] (partner 0.002 µM)	0.939
O=C(O)CCCCC(CCSCc1ccccc1)SCc1ccccc1 (centres undefined) [CPI-613] + CC1(C)CCC(c2ccc(Cl)cc2)=C(CN2CCN(c3ccc(C(=O)NS(=O)(=O)c4ccc(N[C@H](CCN5CCOCC5)CSc5ccccc5)c(S(=O)(=O)C(F)(F)F)c4)cc3)CC2)C1 [Navitoclax] (partner 0.5 µM)	0.571
O=C(O)CCCCC(CCSCc1ccccc1)SCc1ccccc1 (centres undefined) [CPI-613] + CCNC(=O)c1noc(-c2cc(C(C)C)c(O)cc2O)c1-c1ccc(CN2CCOCC2)cc1 [Luminespib] (partner 0.01 µM)	0.0798

====

Listed molecules paired with reported relative viability
Test system: NCI-H1993
Assay: relative viability (nuclei count vs DMSO), 5 days (fraction); higher = more cells survive
Settings: first compound 0.4 µM
Assay Endpoint: relative viability

Molecule	Target Desc	Assay Endpoint	Measured
Cc1sc2c(c1C)C(c1ccc(Cl)cc1)=N[C@@H](CC(=O)OC(C)(C)C)c1nnc(C)n1-2 [JQ1] + CC(C)C[C@H](NC(=O)[C@H](Cc1ccccc1)NC(=O)c1cnccn1)B(O)O [Bortezomib] (partner 0.002 µM)	NCI-H1993	relative viability	1.04
Cc1sc2c(c1C)C(c1ccc(Cl)cc1)=N[C@@H](CC(=O)OC(C)(C)C)c1nnc(C)n1-2 [JQ1] + Cc1cc(Nc2cc(N3CCN(C)CC3)nc(Sc3ccc(NC(=O)C4CC4)cc3)n2)n[nH]1 [Tozasertib] (partner 0.1 µM)	NCI-H1993	relative viability	0.513
Cc1sc2c(c1C)C(c1ccc(Cl)cc1)=N[C@@H](CC(=O)OC(C)(C)C)c1nnc(C)n1-2 [JQ1] + Cc1nc(NC(=O)N2CCC[C@H]2C(N)=O)sc1-c1ccnc(C(C)(C)C(F)(F)F)c1 [Alpelisib] (partner 2 µM)	NCI-H1993	relative viability	0.667
Cc1sc2c(c1C)C(c1ccc(Cl)cc1)=N[C@@H](CC(=O)OC(C)(C)C)c1nnc(C)n1-2 [JQ1] + C[C@]1(O)C[C@@H](c2nc(-c3ccc4ccc(-c5ccccc5)nc4c3)c3c(N)nccn32)C1 [Linsitinib] (partner 1 µM)	NCI-H1993	relative viability	0.809
Cc1sc2c(c1C)C(c1ccc(Cl)cc1)=N[C@@H](CC(=O)OC(C)(C)C)c1nnc(C)n1-2 [JQ1] + CC(=O)Nc1cccc(-n2c(=O)n(C3CC3)c(=O)c3c(Nc4ccc(I)cc4F)n(C)c(=O)c(C)c32)c1 [Trametinib] (partner 0.02 µM)	NCI-H1993	relative viability	0.541
